- Subject of test: T1, human MSLN-R3 protein (human, UniProt Q13421 487-598)
- T1 construct: also called hMSLN-R3
- Test method notes: ELISA on coated antigen, antibody 1 nM
Listed binders paired with reported OD450

Binder: F7.33.24-H11 (scFv, not shown: small tags and cut ends, also called S009-F7.33.24 humanized antibody VH2a + VL2) scFv: EVQLVQSGAEVKKPGASVKVSCKASGYTFTSYWMHWVRQAPGQGLEWMGNVNPSNAGSNYNEKFKNRVTITVDKSASTAYMELSSLRSEDTAVYYCAPHYIGSRPGFAYWGQGTLVTVSSGGGGSGGGGSGGGGSDIVMTQTPLSLSVTPGQPASISCKASQNVGTNIAWYLQKPGQSPQALIYSASYRYSGVPDRFSGSGSGTDFTLKISRVEAEDVGVYYCQQYNSYPLTFGGGTKVEIK
OD450, OD450: 0.68
//
Binder: F7.33.24-H8 (scFv, not shown: small tags and cut ends, also called S009-F7.33.24 humanized antibody VH2 + VL2) scFv: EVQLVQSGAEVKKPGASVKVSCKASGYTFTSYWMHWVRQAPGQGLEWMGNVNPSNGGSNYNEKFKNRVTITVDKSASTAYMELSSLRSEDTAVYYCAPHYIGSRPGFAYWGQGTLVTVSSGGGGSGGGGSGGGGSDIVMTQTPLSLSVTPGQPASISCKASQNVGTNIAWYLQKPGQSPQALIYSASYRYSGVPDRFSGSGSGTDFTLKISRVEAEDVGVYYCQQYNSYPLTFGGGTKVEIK
OD450, OD450: 0.63

These measurements were taken from patent US20250250357A1.
